These entries and their values trace back to patent US4483853A.

- Tested on: sound-induced seizures
- ASSAY_SUMMARY: Sound-induced (audiogenic) seizures in DBA/2 mice, i.c.v. or i.p. (WR, clonus, tonus)
- Type: in vivo
- SETTINGS: i.c.v., DBA/2 mice; wild running phase
METRIC: ED50 WR (μ mole)
Write the answer as a number in μ mole, unit excluded.

Q: For the molecule shown here, NC(CCCCP(=O)(O)O)C(=O)O (racemic) [(±)-2-Amino-6-phosphonohexanoic acid] , give the reported ED50 WR.
Result: 0.17

Q: For the molecule shown here, N[C@H](CCCCCP(=O)(O)O)C(=O)O [(-)-2-Amino-7-phosphonoheptanoic acid] , give the reported ED50 WR.
Result: 0.0022

Q: For the molecule shown here, NC(CCCCCP(=O)(O)O)C(=O)O (racemic) [(±)-2-Amino-7-phosphonoheptanoic acid, (±)2-amino-7-phosphonoheptanoic acid] , give the reported ED50 WR.
Result: 0.004

###

- Test system: sound-induced seizures
- ASSAY_SUMMARY: Sound-induced (audiogenic) seizures in DBA/2 mice, i.c.v. or i.p. (WR, clonus, tonus)
- Type: in vivo
- SETTINGS: i.c.v., DBA/2 mice; tonus
METRIC: ED50 Tonus (μ mole)
Write the answer as a number in μ mole, unit excluded.

Below are worked cases with known answers.
> print(dat)
                                   compound   target.or.test.system      metric  observed.measurement
1  NC(CCCCCP(=O)(O)O)C(=O)O (racemic) [(±)-2-Amino-7-phosphonoheptanoic acid, (±)2-amino-7-phosphonoheptanoic acid]  sound-induced seizures  ED50 Tonus                0.0008
2  NC(CCCCCP(=O)(O)O)C(=O)O (single isomer, unassigned; (+)) [(+)-2-Amino-7-phosphonoheptanoic acid]  sound-induced seizures  ED50 Tonus                0.0018
3  N[C@H](CCCCCP(=O)(O)O)C(=O)O [(-)-2-Amino-7-phosphonoheptanoic acid]  sound-induced seizures  ED50 Tonus                0.0008
4  NC(CCCCP(=O)(O)O)C(=O)O (racemic) [(±)-2-Amino-6-phosphonohexanoic acid]  sound-induced seizures  ED50 Tonus                  0.15
5  N[C@H](CCC(=O)NCC(=O)O)C(=O)O [γ-D-Glutamylglycine, reference compound]  sound-induced seizures  ED50 Tonus                 0.054

Q: Notebook entry, sound-induced seizures assay: ED50 Tonus of NC(CCCP(=O)(O)O)C(=O)O (racemic) [(±)-2-Amino-5-phosphonopentanoic acid] = ?
Result: 0.025

###

- System: sound-induced seizures
- ASSAY_SUMMARY: Sound-induced (audiogenic) seizures in DBA/2 mice, i.c.v. or i.p. (WR, clonus, tonus)
- Type: in vivo
- SETTINGS: i.c.v., DBA/2 mice; wild running phase
- Method: Dicarboxylic amino acids and their thio-analogues were tested as potential anticonvulsants in animal models of epilepsy by being administered intracerebroventricularly (i.c.v.) or intraperitoneally (i.p.) in mice (either DBA/2 mice showing sound-induced seizures, or Swiss S mice given a just-convulsant dose of pentylenetetrazol, s.c.) or intravenously in baboons, Papio papio, with photosensitive epilepsy. […]
Listed below: ED50 WR values for each entry.
Write the answer as a number in μ mole, unit excluded.

Q: For the molecule shown here, N[C@H](CCC(=O)NCC(=O)O)C(=O)O [γ-D-Glutamylglycine, reference compound] , give the reported ED50 WR.
Result: 0.058

Q: For the molecule shown here, NC(CCCP(=O)(O)O)C(=O)O (racemic) [(±)-2-Amino-5-phosphonopentanoic acid] , give the reported ED50 WR.
Result: 0.046

Q: For the molecule shown here, NC(CCCCCP(=O)(O)O)C(=O)O (single isomer, unassigned; (+)) [(+)-2-Amino-7-phosphonoheptanoic acid] , give the reported ED50 WR.
Result: 0.0135
